Assay: Plasma pharmacokinetics after topical application of crisaborole topical ointment, 2% BID under maximal-use conditions (HPLC tandem mass spectrometry, noncompartmental)
Details: human, plasma, topical, 3 mg/cm^2, AUC0–12, mean ± SD, plasma, day 1, all patients (n = 32)

| molecule | AUC(0-t) |
| --- | --- |
| N#Cc1ccc(Oc2ccc3c(c2)COB3O)cc1 [Crisaborole, crisaborole] | 759 ng·h/mL |

* * *

Test: Plasma pharmacokinetics after topical application of crisaborole topical ointment, 2% BID under maximal-use conditions (HPLC tandem mass spectrometry, noncompartmental)
Conditions: human, plasma, topical, 3 mg/cm^2, AUC0–24, mean ± SD, plasma, day 1, all patients (n = 29)

| substance smiles | unit spec | AUC(0-t) |
| --- | --- | --- |
| N#Cc1ccc(Oc2ccc3c(c2)COB3O)cc1 | ng·h/mL | 833 |

* * *

Assay: Plasma pharmacokinetics after topical application of crisaborole topical ointment, 2% BID under maximal-use conditions (HPLC tandem mass spectrometry, noncompartmental)
Details: human, plasma, topical, 3 mg/cm^2

| compound | unit spec | Tmax |
| --- | --- | --- |
| N#Cc1ccc(Oc2ccc3c(c2)COB3O)cc1 [Crisaborole, crisaborole] | h | 3 |

* * *

Test: Plasma pharmacokinetics after topical application of crisaborole topical ointment, 2% BID under maximal-use conditions (HPLC tandem mass spectrometry, noncompartmental)
Conditions: human, plasma, topical, 3 mg/cm^2, AUC0–T, mean ± SD, plasma, day 8, all patients (n = 33)
measured metric: AUC(0-t)

| substance smiles | assay value |
| --- | --- |
| N#Cc1ccc(Oc2ccc3c(c2)COB3O)cc1 | 1320 ng·h/mL |

* * *

Test: Plasma pharmacokinetics after topical application of crisaborole topical ointment, 2% BID under maximal-use conditions (HPLC tandem mass spectrometry, noncompartmental)
Conditions: human, plasma, topical, 3 mg/cm^2, AUC0–12, mean ± SD, plasma, day 8, all patients (n = 32)

| compound | unit spec | AUC(0-t) |
| --- | --- | --- |
| N#Cc1ccc(Oc2ccc3c(c2)COB3O)cc1 [Crisaborole, crisaborole] | ng·h/mL | 949 |

* * *

Experiment: Plasma pharmacokinetics after topical application of crisaborole topical ointment, 2% BID under maximal-use conditions (HPLC tandem mass spectrometry, noncompartmental)
Settings: human, plasma, topical, 3 mg/cm^2, AUC0–T, mean ± SD, plasma, day 1, all patients (n = 34)
measured metric: AUC(0-t)

| substance smiles | measured metric | assay value |
| --- | --- | --- |
| N#Cc1ccc(Oc2ccc3c(c2)COB3O)cc1 | AUC(0-t) | 863 ng·h/mL |

* * *

Assay: Plasma pharmacokinetics after topical application of crisaborole topical ointment, 2% BID under maximal-use conditions (HPLC tandem mass spectrometry, noncompartmental)
Conditions: human, plasma, topical, 3 mg/cm^2, AUC0–24, mean ± SD, plasma, day 8, all patients (n = 32)
measured metric: AUC(0-t) (ng·h/mL)

| compound | measured metric | assay value |
| --- | --- | --- |
| N#Cc1ccc(Oc2ccc3c(c2)COB3O)cc1 [Crisaborole, crisaborole] | AUC(0-t) | 1320 |
